// data source = paper PMC6270263

Tested on: SK-MEL-28 melanoma cell line
Assay: MTT cell proliferation assay in melanoma cells
Format: cell-based, human
Details: Homo sapiens, SK-MEL-28, 144 h, SK-MEL-28, after 6 days of treatment; read-out: Half-maximal inhibitory concentration (IC50)
Procedure: Antifolate compounds are designed to inhibit DHFR and act specifically during DNA and RNA synthesis, making them more toxic to rapidly dividing cells. Recent evidences indicate that tea-catechins and derived compounds could inhibit DHFR and block the folate cycle in cancer cells. […] Concentration- and time-dependent effects were analyzed using the colorimetric 4,5-(3)-dimethylthiazol-2-yl)-2,5-diphenyltetrazolium bromide (MTT) method. […]
experimentalEndpoint: IC50 (µM)
Just the number in µM, nothing appended.

[
  {
    "compound": "COc1cc(C(=O)O[C@H]2Cc3c(O)cc(O)cc3O[C@@H]2c2ccc(O)c(O)c2)cc(OC)c1OC",
    "numericReadout": 1.5
  }
]

Would you mind telling me what IC50 value was observed for `COc1cc(C(=O)O[C@@H]2Cc3c(O)cc(O)cc3O[C@@H]2c2ccc(O)c(O)c2)cc(OC)c1OC` ?
2.5

---

test: UV-visible absorption spectra at different pH (ionization state); assay type: physicochemical; conditions: UV-visible spectra; pH range 5.0–9.0 for TMCG and TMECG
experimentalEndpoint: Effect of pH on absorption spectra

[
  {
    "smilesRepresentation": "COc1cc(C(=O)O[C@@H]2Cc3c(O)cc(O)cc3O[C@@H]2c2ccc(O)c(O)c2)cc(OC)c1OC",
    "experimentalEndpoint": "Effect of pH on absorption spectra",
    "result": "no significant changes"
  },
  {
    "smilesRepresentation": "COc1cc(C(=O)O[C@H]2Cc3c(O)cc(O)cc3O[C@@H]2c2ccc(O)c(O)c2)cc(OC)c1OC",
    "experimentalEndpoint": "Effect of pH on absorption spectra",
    "result": "no significant changes"
  }
]

---

IC50 values, listed per item
tested on: SK-MEL-28 melanoma cell line; assay: MTT cell proliferation assay in melanoma cells; assay type: cell-based, human; settings: Homo sapiens, SK-MEL-28, 144 h, SK-MEL-28, after 6 days of treatment; read-out: Half-maximal inhibitory concentration (IC50)

[
  {
    "compound": "O=C(O[C@@H]1Cc2c(O)cc(O)cc2O[C@@H]1c1ccc(O)c(O)c1)c1cc(O)c(O)c(O)c1 [ECG, epicatechin-3-gallate, reference compound]",
    "result": "> 100 µM"
  }
]

Quick one: IC50 of O=C(O[C@H]1Cc2c(O)cc(O)cc2O[C@@H]1c1ccc(O)c(O)c1)c1cc(O)c(O)c(O)c1 [CG, catechin-3-gallate, reference compound] ?
82.2 µM

Item `COc1cc(C(=O)O[C@H]2Cc3c(OC(C)=O)cc(OC(C)=O)cc3O[C@@H]2c2ccc(OC(C)=O)c(OC(C)=O)c2)cc(OC)c1OC(C)=O` has what recorded IC50?
37.4 µM

Can you look up the measured IC50 of `COc1cc(C(=O)O[C@H]2Cc3c(O)cc(O)cc3O[C@@H]2c2ccc(O)c(O)c2)cc(OC)c1OC(C)=O` for me?
60.9 µM

Fill in: IC50 of COc1cc(C(=O)OC2Cc3c(O)cc(O)cc3OC2c2ccc(O)c(O)c2)cc(OC)c1O (centres unmarked) is ___
126 µM
